The next entries give measured pKi for Neuropeptide Y receptor type 2 (Homo sapiens).
pKi: −log10 of the molar value.

| entrySmiles | measurementTarget | relationalOperator | pKi |
| --- | --- | --- | --- |
| NCCN(CCNC(=O)CCC(=O)NCCCCCCNC(=O)/N=C(/N)NCCC[C@@H](NC(=O)C(c1ccccc1)c1ccccc1)C(=O)NCc1ccc(O)cc1)CCNC(=O)CCC(=O)NCCCCCCNC(=O)/N=C(/N)NCCC[C@@H](NC(=O)C(c1ccccc1)c1ccccc1)C(=O)NCc1ccc(O)cc1 | Neuropeptide Y receptor type 2 (Homo sapiens) | = | 5.89 |
| NCCN(CCNC(=O)CCC(=O)NCCOCCOCCNC(=O)/N=C(/N)NCCC[C@@H](NC(=O)C(c1ccccc1)c1ccccc1)C(=O)NCc1ccc(O)cc1)CCNC(=O)CCC(=O)NCCOCCOCCNC(=O)/N=C(/N)NCCC[C@@H](NC(=O)C(c1ccccc1)c1ccccc1)C(=O)NCc1ccc(O)cc1 | Neuropeptide Y receptor type 2 (Homo sapiens) | = | 5.74 |
| NCCNC(=O)CCC(=O)NCCNC(=O)/N=C(\N)NCCC[C@H](NC(=O)C(c1ccccc1)c1ccccc1)C(=O)NCc1ccc(CNC(N)=O)cc1 | Neuropeptide Y receptor type 2 (Homo sapiens) | < | 5.30 |
| NCCN(CCNC(=O)c1ccc(C(=O)NCCCCNC(=O)/N=C(/N)NCCC[C@@H](NC(=O)C(c2ccccc2)c2ccccc2)C(=O)NCc2ccc(O)cc2)cc1)CCNC(=O)c1ccc(C(=O)NCCCCNC(=O)/N=C(/N)NCCC[C@@H](NC(=O)C(c2ccccc2)c2ccccc2)C(=O)NCc2ccc(O)cc2)cc1 | Neuropeptide Y receptor type 2 (Homo sapiens) | = | 6.11 |
| NCCN(CCNC(=O)CCC(=O)NCCOCCOCCNC(=O)/N=C(/N)NCCC[C@@H](NC(=O)C(c1ccccc1)c1ccccc1)C(=O)NCc1ccc(CNC(N)=O)cc1)CCNC(=O)CCC(=O)NCCOCCOCCNC(=O)/N=C(/N)NCCC[C@@H](NC(=O)C(c1ccccc1)c1ccccc1)C(=O)NCc1ccc(CNC(N)=O)cc1 | Neuropeptide Y receptor type 2 (Homo sapiens) | = | 5.40 |
| NCCC(=O)NCCNC(=O)CCC(=O)NCCNC(=O)/N=C(\N)NCCC[C@H](NC(=O)C(c1ccccc1)c1ccccc1)C(=O)NCc1ccc(CNC(N)=O)cc1 | Neuropeptide Y receptor type 2 (Homo sapiens) | < | 5.30 |
| NCCOCCOCCNC(=O)/N=C(/N)NCCC[C@@H](NC(=O)C(c1ccccc1)c1ccccc1)C(=O)NCc1ccc(O)cc1 | Neuropeptide Y receptor type 2 (Homo sapiens) | < | 5.30 |
| N=C(N)NCCC[C@@H](NC(=O)C(c1ccccc1)c1ccccc1)C(=O)NCc1ccc(CNC(=O)NCCCCNC(=O)CCCC(=O)NCCN(CCN)CCNC(=O)CCCC(=O)NCCCCNC(=O)NCc2ccc(CNC(=O)[C@@H](CCCNC(=N)N)NC(=O)C(c3ccccc3)c3ccccc3)cc2)cc1 | Neuropeptide Y receptor type 2 (Homo sapiens) | < | 5.30 |
| CCC(=O)NCCN(CCNC(=O)c1ccc(C(=O)NCCOCCOCCNC(=O)/N=C(/N)NCCC[C@@H](NC(=O)C(c2ccccc2)c2ccccc2)C(=O)NCc2ccc(O)cc2)cc1)CCNC(=O)c1ccc(C(=O)NCCOCCOCCNC(=O)/N=C(/N)NCCC[C@@H](NC(=O)C(c2ccccc2)c2ccccc2)C(=O)NCc2ccc(O)cc2)cc1 | Neuropeptide Y receptor type 2 (Homo sapiens) | < | 5.30 |
| NCCCOCCOCCOCCNC(=O)CCC(=O)NCCNC(=O)/N=C(\N)NCCC[C@H](NC(=O)C(c1ccccc1)c1ccccc1)C(=O)NCc1ccc(CNC(N)=O)cc1 | Neuropeptide Y receptor type 2 (Homo sapiens) | < | 5.30 |

This collection of values is drawn from ChEMBL document CHEMBL2439953.
